The measured values listed here are drawn from patent US20110124842A1.

# tested on: Fab 4E10
# measurement description: Surface plasmon resonance (Biacore 2000), Fab 4E10 on CM5 chip
# Type: binding, human
# condition notes: read-out: Kd (Biacore)
Bridges are numbered along the chain shown (N, C = ends). Where no end group is shown, it is not given here. [ ]: non-standard residue; d: D form. code O = not defined here
measured property: pKd
# pKd: negative log10 of molar concentration; output just the value

# pKd (substance: NWFc(CITO)WLWKKKK-NH2 (NWFCIT[code O]WLWKKKK-NH2; bridge 4-7; reading uncertain; also: printed as NWFc(CITO)WLWKKKK-NH2) [Peptide 104-2] ) is 7.77

# pKd (substance: NWFDITNWLWYIKKKK [Peptide 94-1, NWFDITNWLWYIKKKK-NH2] ) is 7.74
